test system: PBMC; assay: cytotoxicity on PBMC; format: cell-based; details: Table 4; line HIV-1 4200 type E/PBMC; 7200 min
Observable: CC50

Give the measured CC50 of CCc1c(C)[nH]c(=O)c([N+](=O)[O-])c1Sc1cc(C)cc(C)c1 [Compound 7c] .
> 10 µM

====

test system: isolated virion HIV-1LAI; assay: infectivity of the isolated virion after treatment with inhibitors (HT4LacZ cells); format: cell-based; conditions: Human immunodeficiency virus 1; 1 μM inhibitor, 3 h; 100 TCID50; compared with viral supernatant subjected to same treatments; mean of 1 to 4 experiments; read-out: Activity of the isolated virions after treatment
Observable: activity at 1 µM (%)
# number only, unit % dropped from output

Cc1c(Sc2ccccc2)n(COCCO)c(=O)[nH]c1=O :: 121

Give the measured activity at 1 µM of Cc1ccnc2c1NC(=O)c1cccnc1N2C1CC1 .
86

Give the measured activity at 1 µM of Nc1ccn([C@@H]2CS[C@H](CO)O2)c(=O)n1 .
100

Give the measured activity at 1 µM of O=c1[nH]cnc2c1ncn2[C@H]1CC[C@@H](CO)O1 .
100

Give the measured activity at 1 µM of CCc1c(C)[nH]c(=O)c([N+](=O)[O-])c1Sc1cc(C)cc(C)c1 .
1

====

System: isolated virion HIV-1LAI
Assay: infectivity of the isolated virion after treatment with inhibitors (HT4LacZ cells)
Format: cell-based
Conditions: Human immunodeficiency virus 1; 10 μM inhibitor, 3 h; 100 TCID50; compared with viral supernatant subjected to same treatments; mean of 1 to 4 experiments; read-out: Activity of the isolated virions after treatment
Protocol: H9 cells chronically infected with HIV-1LAI (10^8 /ml) were cocultivated with MT4 cells (10^8 /ml) for 48 hours in an RMPI medium supplemented by 10% of calf foetal serum (CFS). The cells were then removed by centrifugation and then the supernatant liquid was filtered (0.45 μm) to remove residual cells and cell debris. […]
Reported activity at 10 µM by item:
# number only, unit % dropped from output

O=c1[nH]cnc2c1ncn2[C@H]1CC[C@@H](CO)O1 [ddl] :: 100
Cc1c(Sc2ccccc2)n(COCCO)c(=O)[nH]c1=O [HEPT] :: 141
Nc1ccn([C@@H]2CS[C@H](CO)O2)c(=O)n1 [Compound 3TC] :: 100
Cc1ccnc2c1NC(=O)c1cccnc1N2C1CC1 [Nevirapine] :: 111

What is its activity at 10 µM for isolated virion HIV-1LAI? Entry: CCc1c(C)[nH]c(=O)c([N+](=O)[O-])c1Sc1cc(C)cc(C)c1 [Compound 7c]
0

====

experiment: cytotoxicity on non-infected cells (MTT test); assay type: cell-based; conditions: human; Table 2; non-infected CEM-SS cells, MTT, 5 days
Observable: CC50 at 120 h (µM)
# number only, unit µM dropped from output

Below, 5 molecules whose answers are already recorded.
Cc1cnc(O)c(N)c1Sc1nc2ccccc2o1 :: 7.5
Cc1c[nH]c(=O)c([N+](=O)[O-])c1Sc1ccccn1 :: 28.5
Cc1cc(C)nc(Sc2c(C)c[nH]c(=O)c2[N+](=O)[O-])n1 :: 19.5
Cc1cccc(Sc2c(C)c[nH]c(=O)c2N)c1 :: 78
Cc1c[nH]c(=O)c([N+](=O)[O-])c1Sc1nccn1C :: 68.5

Give the measured CC50 at 120 h of Cc1c[nH]c(=O)c([N+](=O)[O-])c1Sc1nc2ccccc2o1 .
16
